Parameter: Substrate digestion ratio (%) Neutrophile elastase pH 8.6. Scope: all listed entries.
- Target under test: human neutrophile elastase (Homo sapiens, UniProt P08246)
- Sequence (P08246 30-267): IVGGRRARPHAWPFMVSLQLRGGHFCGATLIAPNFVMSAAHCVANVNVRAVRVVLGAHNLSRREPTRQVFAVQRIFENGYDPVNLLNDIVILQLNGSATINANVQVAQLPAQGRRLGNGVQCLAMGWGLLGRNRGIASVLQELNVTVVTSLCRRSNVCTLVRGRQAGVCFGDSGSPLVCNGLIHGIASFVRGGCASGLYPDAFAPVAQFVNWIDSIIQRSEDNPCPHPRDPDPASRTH
- Assay remarks: Substrate specificity, synthetic MCA substrates
- Type: biochemical
- Assay setup: pH 8.6; activity on Suc-Ala-Pro-Ala-MCA taken to be 100%
*1 amine or outer side, *2 acyl side, *3 side chain or, on linkers, in order; H or OH if unused. Where a SMILES comes first, the peptide text is derived from it. The star is where a group is joined. AMC = Cc1cc(=O)oc2cc(N*)ccc12; Suc = O=C(CCC(=O)[*:2])[*:1]; Boc = CC(C)(C)OC(=O)*
// return numeric value only (unit: %, not printed)

As a guide, the following entries are already answered.
Compound	Target under test	Observed value
Cc1cc(=O)oc2cc(NC(=O)[C@@H](N)CC(C)C)ccc12	human neutrophile elastase (Homo sapiens, UniProt P08246)	0.2
Cc1cc(=O)oc2cc(NC(=O)[C@@H]3CCCN3C(=O)CNC(=O)[C@H](CC(C)C)NC(=O)[C@@H]3CCCN3C(=O)CNC(=O)CCC(=O)O)ccc12 [Suc-Gly-Pro-Leu-Gly-Pro-MCA] (Suc-GPLGP-{AMC})	human neutrophile elastase (Homo sapiens, UniProt P08246)	0
Cc1cc(=O)oc2cc(NC(=O)[C@H](CCCNC(=N)N)NC(=O)[C@@H]3CCCN3C(=O)[C@@H](NC(=O)OC(C)(C)C)C(C)C)ccc12 [Boc-Val-Pro-Arg-MCA] (Boc-Val-Pro-Arg-{AMC})	human neutrophile elastase (Homo sapiens, UniProt P08246)	0.2
Cc1cc(=O)oc2cc(NC(=O)[C@H](CCCCN)NC(=O)[C@H](CC(C)C)NC(=O)[C@@H](NC(=O)OC(C)(C)C)C(C)C)ccc12 [Boc-Val-Leu-Lys-MCA] (Boc-Val-Leu-Lys-{AMC})	human neutrophile elastase (Homo sapiens, UniProt P08246)	0.1
Cc1cc(=O)oc2cc(NC(=O)[C@H](C)NC(=O)[C@@H]3CCCN3C(=O)[C@H](C)NC(=O)CCC(=O)O)ccc12 [Suc-Ala-Pro-Ala-MCA] (Suc-Ala-Pro-Ala-{AMC})	human neutrophile elastase (Homo sapiens, UniProt P08246)	100

// query Can you look up the measured Substrate digestion ratio (%) Neutrophile elastase pH 8.6 of CC[C@H](C)[C@H](NC(=O)OC(C)(C)C)C(=O)N[C@@H](CCC(N)=O)C(=O)NCC(=O)N[C@@H](CCCNC(=N)N)C(=O)Nc1ccc2c(C)cc(=O)oc2c1 [Boc-Ile-Gln-Gly-Arg-MCA] (Boc-IQGR-{AMC}) for me?
// result 0.3

// query Can you look up the measured Substrate digestion ratio (%) Neutrophile elastase pH 8.6 of Cc1cc(=O)oc2cc(NC(=O)[C@H](CCCNC(=N)N)NC(=O)[C@H](C)NC(=O)[C@H](CCC(N)=O)NC(=O)OC(C)(C)C)ccc12 [Boc-Gln-Ala-Arg-MCA] (Boc-Gln-Ala-Arg-{AMC}) for me?
// result 0.3

// query Can you look up the measured Substrate digestion ratio (%) Neutrophile elastase pH 8.6 of Cc1cc(=O)oc2cc(NC(=O)[C@H](CCCNC(=N)N)NC(=O)[C@H](CO)NC(=O)[C@H](Cc3ccccc3)NC(=O)OC(C)(C)C)ccc12 [Boc-Phe-Ser-Arg-MCA] (Boc-Phe-Ser-Arg-{AMC}) for me?
// result 0.4

// query Can you look up the measured Substrate digestion ratio (%) Neutrophile elastase pH 8.6 of Cc1cc(=O)oc2cc(NC(=O)[C@H](CCCNC(=N)N)NC(=O)CNC(=O)[C@H](CCC(N)=O)NC(=O)OC(C)(C)C)ccc12 [Boc-Gln-Gly-Arg-MCA] (Boc-Gln-Gly-Arg-{AMC}) for me?
// result 0.2
